Taken from patent USRE48097E1.

# Tested on: E. coli 2668
# assay_name: MIC against E. coli 2668
# Format: cell-based
# conditions: Escherichia coli; Table 2; E. coli 2668, OXA-48; alone; read-out: MIC
Exercise: for every item that follows, state its recorded MIC.

Look up and report MIC, with E. coli 2668 as system, for CC(C)(O/N=C(\C(=O)N[C@@H]1C(=O)N2C(C(=O)[O-])=C(C[n+]3ccc4n3CCN4Cc3ccc(C(=N)N)cc3)CS[C@H]12)c1csc(N)n1)C(=O)O
0.5 µg/mL

Using E. coli 2668 as the test system, report measured MIC of CC(C)(O/N=C(\C(=O)N[C@@H]1C(=O)N2C(C(=O)[O-])=C(C[n+]3ccc4c(ccn4Cc4cc(C(=N)N)cs4)c3)CS[C@H]12)c1csc(N)n1)C(=O)O .
1 µg/mL

// fetch MIC for CC(C)(O/N=C(\C(=O)N[C@@H]1C(=O)N2C(C(=O)[O-])=C(C[n+]3ccc4c(ccn4Cc4ccc(C(=N)N)cc4)c3)CS[C@H]12)c1csc(N)n1)C(=O)O ; system: E. coli 2668
1 µg/mL

Quote E. coli 2668 MIC for entry CC(C)(O/N=C(\C(=O)N[C@@H]1C(=O)N2C(C(=O)[O-])=C(C[n+]3ccc4c(ccn4Cc4cc(C(=N)N)co4)c3)CS[C@H]12)c1csc(N)n1)C(=O)O .
0.5 µg/mL

* * *

# Test system: K. pneumoniae 4108
# assay_name: MIC against K. pneumoniae 4108
# Type: cell-based
# conditions: Klebsiella pneumoniae, 4108, Table 3; K. pneumoniae 4108, KPC-3, TEM-166, SHV-12, SHV-141; alone; read-out: MIC
Exercise: state measured MIC for each of the molecules provided.
Give the quantity in µg/mL, number only.

Give the observed MIC of CO/N=C(\C(=O)N[C@@H]1C(=O)N2C(C(=O)[O-])=C(C[n+]3ccc4c(ccn4Cc4cc(C(=N)Nc5ccccc5)cs4)c3)CS[C@H]12)c1nc(N)sc1Cl for K. pneumoniae 4108.
32

Please look at CC(C)(O/N=C(\C(=O)N[C@@H]1C(=O)N2C(C(=O)[O-])=C(C[n+]3ccc4c(ccn4Cc4cc(C(=N)N)co4)c3)CS[C@H]12)c1csc(N)n1)C(=O)O and tell me its recorded MIC on K. pneumoniae 4108.
32

* * *

# Test system: E. coli 4102
# assay_name: MIC against E. coli 4102
# Type: cell-based
# conditions: Escherichia coli; Table 2; E. coli 4102, CTX-M-14; alone; read-out: MIC
assay_metric: MIC (µg/mL)
Kindly provide the numeric value in µg/mL only, without the unit symbol.

Report the value of MIC obtained on E. coli 4102 for CC(C)(O/N=C(\C(=O)N[C@@H]1C(=O)N2C(C(=O)[O-])=C(C[n+]3ccc4n3CCN4Cc3ccc(C(=N)N)cc3)CS[C@H]12)c1csc(N)n1)C(=O)O [Example 2] .
1

Answer with MIC of CC(C)(O/N=C(\C(=O)N[C@@H]1C(=O)N2C(C(=O)[O-])=C(C[n+]3ccc4c(ccn4Cc4ccc(C(=N)N)cc4)c3)CS[C@H]12)c1csc(N)n1)C(=O)O [Ex-1] measured for E. coli 4102.
1

Report value only: MIC, E. coli 4102, CC(C)(O/N=C(\C(=O)N[C@@H]1C(=O)N2C(C(=O)[O-])=C(C[n+]3ccc4c(ccn4Cc4cc(C(=N)N)cs4)c3)CS[C@H]12)c1csc(N)n1)C(=O)O [Example 5]
1

Give MIC for CC(C)(O/N=C(\C(=O)N[C@@H]1C(=O)N2C(C(=O)[O-])=C(C[n+]3ccc4c(ccn4Cc4cc(C(=N)N)co4)c3)CS[C@H]12)c1csc(N)n1)C(=O)O [Example 6] tested on E. coli 4102.
2

* * *

Consider the following molecules; for each one, report its MIC.
# Test system: C. freundii 2003
# assay_name: MIC against C. freundii 2003
# Assay type: cell-based
# conditions: Table 2; C. freundii 2003, Caz R, IMP S; in combination with NXL-104
The response must be a number in µg/mL with no trailing unit.

Answer with the recorded MIC for the molecule listed here: CC(C)(O/N=C(\C(=O)N[C@@H]1C(=O)N2C(C(=O)[O-])=C(C[n+]3ccc4c(ccn4Cc4cc(C(=N)N)co4)c3)CS[C@H]12)c1csc(N)n1)C(=O)O
0.50

Annotate the molecule CC(C)(O/N=C(\C(=O)N[C@@H]1C(=O)N2C(C(=O)[O-])=C(C[n+]3ccccc3)CS[C@H]12)c1csc(N)n1)C(=O)O [CAZ, ceftazidime, reference compound] with its measured MIC.
1.00

Determine from records and report MIC for CC(C)(O/N=C(\C(=O)N[C@@H]1C(=O)N2C(C(=O)[O-])=C(C[n+]3ccc4c(ccn4Cc4cc(C(=N)N)cs4)c3)CS[C@H]12)c1csc(N)n1)C(=O)O
0.25

Please give measured MIC of the following entry: CC(C)(O/N=C(\C(=O)N[C@@H]1C(=O)N2C(C(=O)[O-])=C(C[n+]3ccc4n3CCN4Cc3ccc(C(=N)N)cc3)CS[C@H]12)c1csc(N)n1)C(=O)O
0.50

* * *

# Test system: S. aureus 3132
# assay_name: MIC against S. aureus 3132
# Type: cell-based
# conditions: Table 2; S. aureus 3132, MSSA; in combination with NXL-104
assay_metric: MIC (µg/mL)
Quick note: give the figure in µg/mL, leave out the unit.

Query MIC for CC(C)(O/N=C(\C(=O)N[C@@H]1C(=O)N2C(C(=O)[O-])=C(C[n+]3ccc4c(ccn4Cc4cc(C(=N)N)co4)c3)CS[C@H]12)c1csc(N)n1)C(=O)O
4.00

# return recorded MIC for entry CC(C)(O/N=C(\C(=O)N[C@@H]1C(=O)N2C(C(=O)[O-])=C(C[n+]3ccccc3)CS[C@H]12)c1csc(N)n1)C(=O)O [CAZ, ceftazidime, reference compound]
8.00

Return reported MIC. Input molecule: CC(C)(O/N=C(\C(=O)N[C@@H]1C(=O)N2C(C(=O)[O-])=C(C[n+]3ccc4n3CCN4Cc3ccc(C(=N)N)cc3)CS[C@H]12)c1csc(N)n1)C(=O)O
2.00

Please supply the value of reported MIC for the item CC(C)(O/N=C(\C(=O)N[C@@H]1C(=O)N2C(C(=O)[O-])=C(C[n+]3ccc4c(ccn4Cc4cc(C(=N)N)cs4)c3)CS[C@H]12)c1csc(N)n1)C(=O)O
2.00

* * *

# Tested on: E. cloacae 2709
# assay_name: MIC against E. cloacae 2709
# Format: cell-based
# conditions: Enterobacter cloacae; Table 3; E. cloacae 2709, KPC-3, VIM-1; alone; read-out: MIC
Would you mind telling me the reported MIC of each entry?
Numbers only; they are read as µg/mL.

// fetch MIC; item: CC(C)(O/N=C(\C(=O)N[C@@H]1C(=O)N2C(C(=O)[O-])=C(C[n+]3ccc4n(Cc5ccc(C(=N)N)cc5)ccn43)CS[C@H]12)c1csc(N)n1)C(=O)O [Example 4] ; system: E. cloacae 2709
8

// fetch MIC; item: CC(C)(O/N=C(\C(=O)N[C@@H]1C(=O)N2C(C(=O)[O-])=C(C[n+]3ccc4c(ccn4Cc4cc(C(=N)N)cs4)c3)CS[C@H]12)c1csc(N)n1)C(=O)O [Example 5] ; system: E. cloacae 2709
32

Give measured MIC for CC(C)(O/N=C(\C(=O)N[C@@H]1C(=O)N2C(C(=O)[O-])=C(C[n+]3ccc4n3CCN4Cc3ccc(C(=N)N)cc3)CS[C@H]12)c1csc(N)n1)C(=O)O [Example 2] (E. cloacae 2709).
16

Tell me MIC of CO/N=C(\C(=O)N[C@@H]1C(=O)N2C(C(=O)[O-])=C(C[n+]3ccc4c(ccn4Cc4cc(C(=N)Nc5nccs5)cs4)c3)CS[C@H]12)c1nc(N)sc1Cl [Example 14] when tested on E. cloacae 2709.
32

Report the value of MIC obtained on E. cloacae 2709 for CC(C)(O/N=C(\C(=O)N[C@@H]1C(=O)N2C(C(=O)[O-])=C(C[n+]3ccc4c(ccn4Cc4ccc(C(=N)N)cc4)c3)CS[C@H]12)c1csc(N)n1)C(=O)O [Ex-1] .
32

Param request: MIC | system E. cloacae 2709 | item CC(C)(O/N=C(\C(=O)N[C@@H]1C(=O)N2C(C(=O)[O-])=C(C[n+]3ccc4c(ccn4Cc4cc(C(=N)N)co4)c3)CS[C@H]12)c1csc(N)n1)C(=O)O [Example 6]
32

Give the observed MIC of CO/N=C(\C(=O)N[C@@H]1C(=O)N2C(C(=O)[O-])=C(C[n+]3ccc4c(ccn4Cc4cc(C(=N)Nc5ccccc5)cs4)c3)CS[C@H]12)c1nc(N)sc1Cl [Example 12] for E. cloacae 2709.
32

* * *

# Test system: K. pneumoniae 4108
# assay_name: MIC against K. pneumoniae 4108
# Type: cell-based
# conditions: Klebsiella pneumoniae, 4108, Table 3; K. pneumoniae 4108, KPC-3, TEM-166, SHV-12, SHV-141; alone; read-out: MIC
# Description: As shown, the foregoing composition was tested for minimum inhibitory concentration (MIC, μg/mL) against bacteria listed in Tables 2-3.
Task for the reader: assign each of the following compounds its reported MIC.
Give a bare numeral; the unit µg/mL is implied.

Supply recorded MIC for CC(C)(O/N=C(\C(=O)N[C@@H]1C(=O)N2C(C(=O)[O-])=C(C[n+]3ccc4c(ccn4Cc4cc(C(=N)N)cs4)c3)CS[C@H]12)c1csc(N)n1)C(=O)O here.
32

Name the recorded MIC of the item CC(C)(O/N=C(\C(=O)N[C@@H]1C(=O)N2C(C(=O)[O-])=C(C[n+]3ccc4c(ccn4Cc4ccc(C(=N)N)cc4)c3)CS[C@H]12)c1csc(N)n1)C(=O)O in your answer.
32
